TGI values, listed per item
Tested on: MDA-MB-468 breast
Assay: NCI tumour cell line growth inhibition, 48 h
value.type: TGI (µM)

* COc1cc2c3cc1Oc1c(OC)c(OC)cc4c1C(Cc1ccc(O)c(c1)Oc1ccc(cc1)CC3N(C)CC2)N(C)CC4 (stereo not drawn) | 23.1
* COc1cccc(-c2nc3sccn3c2-c2ccnc(NCCCNS(=O)(=O)c3ccccc3)c2)c1 | 7.83
* O=[N+]([O-])/C=C/c1ccc(Cl)cc1[N+](=O)[O-] | 3.69
* NC(=O)/C(=C/n1cnc(-c2cc(C(F)(F)F)cc(C(F)(F)F)c2)n1)c1cncnc1 | 3.01
* CC[C@H]1OC(=O)[C@H](C)[C@@H](O[C@H]2C[C@@](C)(OC)[C@@H](O)[C@H](C)O2)[C@H](C)[C@@H](O[C@@H]2O[C@H](C)C[C@H](N(C)C)[C@H]2O)[C@](C)(OC)C/C(C)=C2/O[C@@]1(C)C=C2C | 3.5
* COc1cc2cc(Oc3cccc(NC(=O)Nc4cc(C(F)(F)F)cc(C(F)(F)F)c4)c3)c(C)nc2cc1OC | 3.96

* * *

System: MDA-MB-468 breast
Test: NCI tumour cell line growth inhibition, 48 h
GI50 values, listed per item
value.type: GI50

* Cc1cc(NN=C(c2ccc(O)cc2)c2ccc(O)cc2)c([N+](=O)[O-])cc1[N+](=O)[O-] | 4910 nM
* CC[C@H]1OC(=O)[C@H](C)[C@@H](O[C@H]2C[C@@](C)(OC)[C@@H](O)[C@H](C)O2)[C@H](C)[C@@H](O[C@@H]2O[C@H](C)C[C@H](N(C)C)[C@H]2O)[C@](C)(OC)C/C(C)=C2/O[C@@]1(C)C=C2C | 1820 nM
* CCOC(=O)/C(=C\c1ccc2ccccc2c1)P(=O)(OCC)OCC | 1900 nM
* C[C@@H]1CCc2ncc(F)cc2[C@H]2CCCN2c2ccn3ncc(c3n2)C(=O)N1 | 76400 nM
* CCOC(=O)c1c(NC(=O)c2ccc(Cl)cc2)sc2c(CN(C)C)c(O)ccc12 | 3480 nM
* COc1cc(NC2CCCCC2O)c2nc(-c3ccc(Cl)cc3)ccc2c1 (stereo not drawn) | 7480 nM
* CC1(C)CC[C@]2(C(=O)N3CCOCC3)CC[C@]3(C)C(=CC[C@@H]4[C@@]5(C)CC[C@H](NCO)C(C)(C)[C@@H]5CC[C@]43C)[C@H]2C1 | 647 nM
* CCOC(=O)c1c(CN2CCN(C)CC2)nc2ccc(Cl)cc2c1-c1ccccc1 | 1800 nM
